tested on: PPARg homodimer (NR concentration 180 nM); experiment: PBM binding z-score (relative to random genomic background probes); higher = stronger binding; sequences stand for … in GC…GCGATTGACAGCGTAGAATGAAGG
attribute_measured: PBM binding z-score

Measured PBM binding z-score for this entry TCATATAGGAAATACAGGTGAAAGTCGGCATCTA on PPARg homodimer (NR concentration 180 nM): 1.31

Measured PBM binding z-score for this entry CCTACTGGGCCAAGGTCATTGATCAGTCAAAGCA on PPARg homodimer (NR concentration 180 nM): 1.27

Measured PBM binding z-score for this entry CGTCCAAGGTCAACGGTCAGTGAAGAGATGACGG on PPARg homodimer (NR concentration 180 nM): 2.65

Measured PBM binding z-score for this entry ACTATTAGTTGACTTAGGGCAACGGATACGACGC on PPARg homodimer (NR concentration 180 nM): 0.328

Measured PBM binding z-score for this entry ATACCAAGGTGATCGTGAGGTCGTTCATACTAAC on PPARg homodimer (NR concentration 180 nM): 1.15

Measured PBM binding z-score for this entry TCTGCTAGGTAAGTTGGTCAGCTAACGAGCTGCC on PPARg homodimer (NR concentration 180 nM): -1.41

Measured PBM binding z-score for this entry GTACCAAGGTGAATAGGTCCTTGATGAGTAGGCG on PPARg homodimer (NR concentration 180 nM): 0.461

Measured PBM binding z-score for this entry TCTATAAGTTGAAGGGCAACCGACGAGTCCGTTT on PPARg homodimer (NR concentration 180 nM): 0.68

Measured PBM binding z-score for this entry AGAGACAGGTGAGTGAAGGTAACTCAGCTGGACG on PPARg homodimer (NR concentration 180 nM): 0.101

Measured PBM binding z-score for this entry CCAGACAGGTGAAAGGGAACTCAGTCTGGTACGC on PPARg homodimer (NR concentration 180 nM): 0.717

Measured PBM binding z-score for this entry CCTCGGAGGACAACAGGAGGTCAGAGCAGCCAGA on PPARg homodimer (NR concentration 180 nM): 1.41

Measured PBM binding z-score for this entry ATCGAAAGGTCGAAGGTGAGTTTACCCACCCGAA on PPARg homodimer (NR concentration 180 nM): 1.48

Where do these numbers come from? They come from the supplement of paper PMC6555819.
